As shown below, each of these compounds has a reported log10 of Ki value.
target.entity: HAT (Homo sapiens)
Construct: purchased R&D Systems
Sequence (O60235 whole entry): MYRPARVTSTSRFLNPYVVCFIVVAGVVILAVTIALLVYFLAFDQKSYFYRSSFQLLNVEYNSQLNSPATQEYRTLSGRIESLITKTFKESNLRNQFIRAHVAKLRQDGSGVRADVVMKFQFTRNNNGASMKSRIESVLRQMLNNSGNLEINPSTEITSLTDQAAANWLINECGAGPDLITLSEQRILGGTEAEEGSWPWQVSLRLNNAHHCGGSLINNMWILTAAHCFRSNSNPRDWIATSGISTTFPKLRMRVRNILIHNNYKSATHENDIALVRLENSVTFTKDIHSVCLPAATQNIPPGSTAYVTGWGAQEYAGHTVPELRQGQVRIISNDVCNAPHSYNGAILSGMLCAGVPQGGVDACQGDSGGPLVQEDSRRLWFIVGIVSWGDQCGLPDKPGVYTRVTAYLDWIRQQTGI
protocol.description: Enzyme kinetic determination of inhibition of HAT (Ki, Dixon method, fluorogenic substrate d-Cyclohexylalanin-Pro-Arg-7-Aminomethylcoumarin)
Type: biochemical
recorded.conditions: HAT (R&D Systems), Tris pH 9.5, room temperature
quantity.measured: log10 of Ki (log10 of the value in nM)

compound=N=C(N)c1ccc(CNC(=O)[C@@H]2CCCN2C(=O)[C@@H](CCCCN)NS(=O)(=O)Cc2ccccc2)cc1 quantity_measured="log10 of Ki" value_reported=1.48
compound=N=C(N)c1ccc(CNC(=O)[C@@H]2CCCN2C(=O)[C@@H](CC2CCCCC2)NS(=O)(=O)Cc2ccccc2)cc1 quantity_measured="log10 of Ki" value_reported=1.89
compound=N=C(N)NCCCC[C@@H](NS(=O)(=O)Cc1ccccc1)C(=O)N1CCC[C@H]1C(=O)NCc1ccc(C(=N)N)cc1 quantity_measured="log10 of Ki" value_reported=1.11
compound="N=C(N)c1ccc(CNC(=O)[C@@H]2CCCN2C(=O)C(CCc2ccccn2)NS(=O)(=O)Cc2ccccc2)cc1 (stereo partly shown)" quantity_measured="log10 of Ki" value_reported=1.51
compound=N=C(N)c1ccc(CNC(=O)CNC(=O)[C@@H](CO)NS(=O)(=O)Cc2ccccc2)cc1 quantity_measured="log10 of Ki" value_reported=3.26
compound=CCCCCCCCCC(=O)NCCCC[C@H](NC(=O)[C@@H](CCCNC(=N)N)NS(=O)(=O)Cc1ccccc1)C(=O)NCc1ccc(C(=N)N)cc1 quantity_measured="log10 of Ki" value_reported=2.20
compound=[H]/N=C(\N)c1ccc(CNC(=O)[C@@H]2CCCN2C(=O)[C@@H](Cc2ccccc2)NS(=O)(=O)Cc2ccccc2)cc1 quantity_measured="log10 of Ki" value_reported=1.82
compound=N=C(N)c1ccc(CNC(=O)[C@H](CCCCNC(=O)OCc2ccccc2)NC(=O)[C@@H](CC2CCCCC2)NS(=O)(=O)Cc2ccccc2)cc1 quantity_measured="log10 of Ki" value_reported=2.69
compound=N#Cc1ccc(C[C@@H](NS(=O)(=O)Cc2ccccc2)C(=O)N2CCC[C@H]2C(=O)NCc2ccc(C(=N)N)cc2)cc1 quantity_measured="log10 of Ki" value_reported=2.32
compound=N=C(N)c1ccc(CNC(=O)[C@@H]2CCCN2C(=O)[C@@H](CCCCNC(=O)OCc2ccccc2)NS(=O)(=O)Cc2ccccc2)cc1 quantity_measured="log10 of Ki" value_reported=1.69
compound=N=C(N)NCCC[C@@H](NS(=O)(=O)Cc1ccccc1)C(=O)N1CCC[C@H]1C(=O)NCc1ccc(C(=N)N)cc1 quantity_measured="log10 of Ki" value_reported=1.28
compound=N=C(N)c1ccc(CNC(=O)CNC(=O)[C@@H](CCCN=C(N)N)NS(=O)(=O)Cc2ccccc2)cc1 quantity_measured="log10 of Ki" value_reported=2.45
compound=N=C(N)c1ccc(CNC(=O)[C@H](CCCCNC(=O)OCc2ccccc2)NC(=O)[C@@H](CO)NS(=O)(=O)Cc2ccccc2)cc1 quantity_measured="log10 of Ki" value_reported=1.68
compound=N=C(N)c1ccc(CNC(=O)[C@@H]2CCCN2C(=O)[C@@H](CCc2ccccc2)NS(=O)(=O)Cc2ccccc2)cc1 quantity_measured="log10 of Ki" value_reported=1.74
compound=N=C(N)c1ccc(CNC(=O)[C@H](CO)NC(=O)[C@@H](CO)NS(=O)(=O)Cc2ccccc2)cc1 quantity_measured="log10 of Ki" value_reported=1.89
